Where do the numbers come from? From patent US20090181986A1.

Biological target: hERG potassium channel (Homo sapiens, UniProt Q12809)
Sequence (Q12809 whole entry): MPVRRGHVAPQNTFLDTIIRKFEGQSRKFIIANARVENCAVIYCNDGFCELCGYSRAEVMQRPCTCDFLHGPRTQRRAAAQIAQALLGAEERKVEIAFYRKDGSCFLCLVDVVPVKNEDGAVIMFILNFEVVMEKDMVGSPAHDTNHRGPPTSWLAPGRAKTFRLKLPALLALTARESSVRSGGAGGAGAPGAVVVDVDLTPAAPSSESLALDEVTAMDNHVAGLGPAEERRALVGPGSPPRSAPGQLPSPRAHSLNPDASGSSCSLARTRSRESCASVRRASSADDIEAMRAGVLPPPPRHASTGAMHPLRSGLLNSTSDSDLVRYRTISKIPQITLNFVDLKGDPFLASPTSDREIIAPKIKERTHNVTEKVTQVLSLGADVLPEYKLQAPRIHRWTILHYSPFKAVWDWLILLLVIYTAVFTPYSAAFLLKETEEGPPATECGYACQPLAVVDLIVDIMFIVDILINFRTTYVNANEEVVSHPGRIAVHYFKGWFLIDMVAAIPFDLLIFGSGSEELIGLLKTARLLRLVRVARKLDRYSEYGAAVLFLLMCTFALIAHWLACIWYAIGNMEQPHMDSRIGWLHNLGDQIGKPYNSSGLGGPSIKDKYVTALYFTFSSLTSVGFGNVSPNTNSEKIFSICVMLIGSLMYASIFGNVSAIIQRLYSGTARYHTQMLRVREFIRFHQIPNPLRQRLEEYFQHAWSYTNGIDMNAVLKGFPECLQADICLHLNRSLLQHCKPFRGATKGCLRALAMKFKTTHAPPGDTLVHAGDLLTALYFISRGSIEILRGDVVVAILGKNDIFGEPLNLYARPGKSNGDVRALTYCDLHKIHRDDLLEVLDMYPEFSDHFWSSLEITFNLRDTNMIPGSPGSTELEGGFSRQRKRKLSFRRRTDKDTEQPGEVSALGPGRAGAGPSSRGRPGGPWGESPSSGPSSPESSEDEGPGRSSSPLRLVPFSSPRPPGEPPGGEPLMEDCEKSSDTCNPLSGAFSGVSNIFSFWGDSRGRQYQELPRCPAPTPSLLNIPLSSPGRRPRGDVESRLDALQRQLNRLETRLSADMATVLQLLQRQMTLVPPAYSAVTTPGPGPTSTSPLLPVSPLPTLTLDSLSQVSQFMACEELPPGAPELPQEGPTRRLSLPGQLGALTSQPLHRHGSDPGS
Assay: hERG screening assay (PatchXpress patch clamp, CHO cells)
Details: 10 μM test cmpd
Property label: hERG Patch Clamp hERG % blk (10 μM test cmpd) (%)
The response must be a number in % with no trailing unit.

Some molecules with known hERG Patch Clamp hERG % blk (10 μM test cmpd) results, for comparison:
CCS(=O)(=O)N1CCN(c2cccc(OC)c2C2C(C(=O)OCc3ccccc3)=C(C)Nc3nnnn32)CC1 (stereo not drawn)	41.5
CC1=C(C(=O)OCc2ccccc2)C(c2ccc(N(C)C)c3ccccc23)n2nnnc2N1 (stereo not drawn)	50.5
CCOC(=O)C1=C(C)Nc2[nH]ncc2C1c1ccc(OC)cc1OCc1ccccc1 (stereo not drawn)	50
COc1cc(Cl)ccc1COC(=O)C1=C(C)Nc2nnnn2C1c1c(Cl)cccc1Cl (stereo not drawn)	48.5
CC1=C(C(=O)OCc2ccccc2)C(c2c(Br)sc3ccccc23)n2nnnc2N1 (stereo not drawn)	16.5
N#CC1=C(N)OC2=C(C(=O)CCC2)C1c1ccsc1 (stereo not drawn)	16.5
CC1=C(C(=O)OCc2ccccc2)C(c2sc3ccccc3c2C)n2nnnc2N1 (stereo not drawn)	40
CC1=C(C(=O)O[C@@H](C)c2ccccc2)[C@@H](c2cccc3ccccc23)n2nnnc2N1	53.5

Q. Data request, read-out hERG Patch Clamp hERG % blk (10 μM test cmpd), for N#CC1=C(N)OC2=C(C(=O)CC(c3ccccc3)C2)C1c1ccco1 (stereo not drawn)
A. 46

Q. Now this one: CCOC(=O)C1=C(C)Nc2nnnn2C1c1ccccc1-n1ccnc1.Cl (stereo not drawn)
A. 23

Q. How about this molecule: COc1cc(Cl)ccc1COC(=O)C1=C(C)Nc2nnnn2C1c1c(C)cccc1C (stereo not drawn)
A. 62.5

Q. Try CCOC(=O)C1=C(C)Nc2nnnn2C1c1ccccc1-n1ccnc1C.Cl (stereo not drawn) next.
A. 21

Q. Now consider CC1=C(C(=O)OCc2ccccc2)C(c2nccs2)n2nnnc2N1 (stereo not drawn) and answer again.
A. 17.5
